System: MCF7 breast
experiment_summary: NCI tumour cell line growth inhibition, 48 h; in the data active means GI50 below about 0.43 µM; inactive means the rest
Labels: t (active), f (inactive)

compound: COc1c(OC2OC(C)C(O)C(O)C2O)c(OC)c2oc(-c3ccc(O)cc3)cc(=O)c2c1O (centres undefined)
qualitative_label: f
//
compound: COc1ccc2c(CN3CCCC[C@H]3O)cc3cc4c(cc3c2c1)OCO4
qualitative_label: t
//
compound: COc1ccc(CN2c3ccccc3Sc3ccccc32)cc1O
qualitative_label: t
//
compound: COC(=O)N[C@@H](C)CNc1nccc(-c2cn(C(C)C)nc2-c2cc(Cl)cc(NS(C)(=O)=O)c2F)n1
qualitative_label: f
//
compound: CC(C)(O)c1cc(Nc2cc(Oc3cn(C4CC4)nc3C3CCOCC3)ccn2)ccn1
qualitative_label: f
//
compound: CN(CCOc1ccc(NS(C)(=O)=O)cc1)CCc1ccc(NS(C)(=O)=O)cc1
qualitative_label: f
//
compound: Cc1cc(C)c(-c2c(O)c(Br)c(-c3c(C)cc(C)c(Br)c3C)c(O)c2Br)c(C)c1Br
qualitative_label: f
//
compound: CCCC(=O)Nc1cc(/C=C/C(=O)N2C[C@@H]3C[C@]34C2=CC(=O)c2[nH]cc(C)c24)n(C)c1
qualitative_label: t
//
compound: COC1CCC(OC)C(c2nc3sccn3c2/C=N/N=C(N)N)C1 (centres undefined)
qualitative_label: f
